System: HT29 colon
Assay: NCI tumour cell line growth inhibition, 48 h

[
  {
    "molecule": "O=C1OC(O)C(Oc2ccc(Cl)cc2)=C1Cl (stereo not drawn)",
    "TGI": "> 100 µM"
  },
  {
    "molecule": "NCCC(O)(P(=O)(O)O)P(=O)(O)O",
    "TGI": "> 100 µM"
  },
  {
    "molecule": "CC(=O)N[C@H]1CCCC[C@@H]1OC(C)=O",
    "TGI": "> 100 µM"
  }
]

###

System: RPMI-8226 leukemia
Assay: NCI tumour cell line growth inhibition, 48 h
value.type: TGI (µM)

[
  {
    "molecule": "O=c1c2ccccc2c2nc3ccccc3nc2n1C1CCCCC1",
    "readout.qualifier": ">",
    "meas.value": 100
  },
  {
    "molecule": "Cc1ccc(-c2csc(=Nc3c(C)n(C)n(-c4ccccc4)c3=O)n2CCO)cc1",
    "readout.qualifier": ">",
    "meas.value": 100
  },
  {
    "molecule": "COc1cc([N+](=O)[O-])ccc1NC1=CC(=O)CCC1",
    "readout.qualifier": ">",
    "meas.value": 100
  },
  {
    "molecule": "N/N=C1/CCCc2nonc21",
    "readout.qualifier": ">",
    "meas.value": 100
  },
  {
    "molecule": "Cn1cc(C2=C(c3cn(CCN)c4ccccc34)C(=O)NC2=O)c2ccccc21",
    "readout.qualifier": "=",
    "meas.value": 15.5
  },
  {
    "molecule": "CC(=O)Oc1cc2c(cc1OC(C)=O)[C@H]1CC[C@]3(C)[C@@H](OC(C)=O)CC[C@H]3[C@@H]1CC2",
    "readout.qualifier": "=",
    "meas.value": 8.43
  },
  {
    "molecule": "Cc1cc(Cl)cc2c1NC(=O)C2(O)C(C)C(=O)c1ccc(Cl)cc1 (stereo not given)",
    "readout.qualifier": "=",
    "meas.value": 98.2
  },
  {
    "molecule": "COc1cc2c(c3c1c(=O)c1ccccc1n3C)C=CC1(CCCCC1)O2",
    "readout.qualifier": ">",
    "meas.value": 5.04
  },
  {
    "molecule": "CCCCCCCCCCCCCCCCCCOCC(CO[P+](=O)O)OCCCCCCCCCCCCCCCCCC (stereo not given)",
    "readout.qualifier": ">",
    "meas.value": 50
  },
  {
    "molecule": "NS(=O)(=O)c1ccc(N2N=C3c4ccccc4CC3C2c2ccc(Cl)cc2)cc1 (stereo not given)",
    "readout.qualifier": "=",
    "meas.value": 24
  }
]

###

System: SNB-78 CNS
Assay: NCI tumour cell line growth inhibition, 48 h
Parameter: TGI. Scope: all listed entries.
value.type: TGI (µM)

[
  {
    "compound": "COc1ccc2nc3ccccc3c(NCCCCCCN(C)CCCl)c2c1",
    "value.type": "TGI",
    "readout.units": "µM",
    "readout.qualifier": "=",
    "meas.value": 4.79
  },
  {
    "compound": "Cc1cc(Cl)cc2c1NC(=O)C2(O)C(C)C(=O)c1ccc(Cl)cc1 (stereo not given)",
    "value.type": "TGI",
    "readout.units": "µM",
    "readout.qualifier": ">",
    "meas.value": 100
  },
  {
    "compound": "O=C(O)CC/C(=N\\Nc1nsc2ccccc12)c1ccc(Cl)cc1",
    "value.type": "TGI",
    "readout.units": "µM",
    "readout.qualifier": ">",
    "meas.value": 100
  },
  {
    "compound": "Clc1c(Cl)c2c(Cl)c(Cl)c1C[P+](c1ccccc1)(c1ccccc1)CC[P+](c1ccccc1)(c1ccccc1)Cc1c(Cl)c(Cl)c(c(Cl)c1Cl)C[P+](c1ccccc1)(c1ccccc1)CC[P+](c1ccccc1)(c1ccccc1)C2",
    "value.type": "TGI",
    "readout.units": "µM",
    "readout.qualifier": "=",
    "meas.value": 18.9
  },
  {
    "compound": "CS(=O)(=O)Nc1ccc(Nc2c3ccccc3nc3ccccc23)cc1",
    "value.type": "TGI",
    "readout.units": "µM",
    "readout.qualifier": "=",
    "meas.value": 28.7
  },
  {
    "compound": "O=C1OC(O)C(Oc2ccc(Cl)cc2)=C1Cl (stereo not given)",
    "value.type": "TGI",
    "readout.units": "µM",
    "readout.qualifier": ">",
    "meas.value": 100
  },
  {
    "compound": "COC(=O)C(Cl)=C1CC1",
    "value.type": "TGI",
    "readout.units": "µM",
    "readout.qualifier": ">",
    "meas.value": 100
  },
  {
    "compound": "CC1=C(C(=O)Nc2ccc(Cl)c(Cl)c2)C(c2ccco2)C(C(=O)Nc2ccc(Cl)c(Cl)c2)=C(C)N1",
    "value.type": "TGI",
    "readout.units": "µM",
    "readout.qualifier": "=",
    "meas.value": 41.4
  },
  {
    "compound": "CC(C)[C@](O)(C(=O)OCC1CC[N+]2([O-])CC[C@@H](O)C12)[C@H](C)O (stereo not given in full)",
    "value.type": "TGI",
    "readout.units": "µM",
    "readout.qualifier": ">",
    "meas.value": 375
  },
  {
    "compound": "CCO[C@]12C[C@H](OC)[C@@]3(O)CC(C1[C@H]3O)C13C4C2[C@H](OC)C1[C@](COC)(CN4CC)[C@H](O)C[C@@H]3OC (stereo not given in full)",
    "value.type": "TGI",
    "readout.units": "µM",
    "readout.qualifier": ">",
    "meas.value": 100
  }
]
